protocolDetails: Biodistribution in BALB/c nu/nu mice bearing PC-3 xenografts
Assay type: in vivo
details: female, BALB/c nu/nu, mouse, blood, iv, total radioactivity; Blockade (co-injection of NOTA-PEG2-RM26), 2 h; read-out: Radionuclide concentration, Blood
Starred links: 1 amine or outer side, 2 acyl side, 3 side chain; linkers in the order of their positions; H or OH if unused. Non-standard residues stand in square brackets, D forms with d. Residues, ends and D or L forms follow the SMILES beside them. *: point of attachment. NOTA = O=C(O)CN1CCN(CC(=O)O)CCN(CC(=O)*)CC1; Sta = CC(C)C[C@H](N)[C@@H](O)CC(=O)O; X2 = O=C(COc1cccc(CN[*:1])c1)[*:2]; X1 = O=C(Cc1ccccc1CCN[*:1])[*:2]; X3 = O=C(COc1ccccc1CN[*:1])[*:2]
valueType: tissue uptake at 2 h (%ID/g)
// return numeric value only (unit: %ID/g, not printed)

1. CC(=O)N[C@@H](CCCCNC(=O)CN1CCN(CC(=O)O)CCN(CC(=O)O)CC1)C(=O)NCc1ccccc1OCC(=O)N[C@H](Cc1ccccc1)C(=O)N[C@@H](CCC(N)=O)C(=O)N[C@@H](Cc1c[nH]c2ccccc12)C(=O)N[C@@H](C)C(=O)N[C@H](C(=O)NCC(=O)N[C@@H](Cc1c[nH]cn1)C(=O)N[C@@H](CC(C)C)[C@@H](O)CC(=O)N[C@@H](CC(C)C)C(N)=O)C(C)C [[^68Ga]Ga-NOTA-oMA-RM26, metal not drawn] (Ac-K(NOTA)[X3][dF]QWAVGH[Sta]L-NH2)    0.22

Given the entry CC(=O)N[C@@H](CCCCNC(=O)CN1CCN(CC(=O)O)CCN(CC(=O)O)CC1)C(=O)NCc1cccc(OCC(=O)N[C@H](Cc2ccccc2)C(=O)N[C@@H](CCC(N)=O)C(=O)N[C@@H](Cc2c[nH]c3ccccc23)C(=O)N[C@@H](C)C(=O)N[C@H](C(=O)NCC(=O)N[C@@H](Cc2c[nH]cn2)C(=O)N[C@@H](CC(C)C)[C@@H](O)CC(=O)N[C@@H](CC(C)C)C(N)=O)C(C)C)c1 [[^68Ga]Ga-NOTA-mMA-RM26, metal not drawn] (Ac-K(NOTA)[X2][dF]QWAVGH[Sta]L-NH2) , report its measured tissue uptake at 2 h.
0.42

Given the entry CC(=O)N[C@@H](CCCCNC(=O)CN1CCN(CC(=O)O)CCN(CC(=O)O)CC1)C(=O)NCCc1ccccc1CC(=O)N[C@H](Cc1ccccc1)C(=O)N[C@@H](CCC(N)=O)C(=O)N[C@@H](Cc1c[nH]c2ccccc12)C(=O)N[C@@H](C)C(=O)N[C@H](C(=O)NCC(=O)N[C@@H](Cc1c[nH]cn1)C(=O)N[C@@H](CC(C)C)[C@@H](O)CC(=O)N[C@@H](CC(C)C)C(N)=O)C(C)C [[^68Ga]Ga-NOTA-oET-RM26, metal not drawn] (Ac-K(NOTA)[X1][dF]QWAVGH[Sta]L-NH2) , report its measured tissue uptake at 2 h.
0.31

###

protocolDetails: Biodistribution in BALB/c nu/nu mice bearing PC-3 xenografts
Type: in vivo
details: female, BALB/c nu/nu, mouse, pancreas, iv, 50 pmol, total radioactivity; 2 h p.i., i.v.; read-out: Radionuclide concentration, Pancreas
Starred links: 1 amine or outer side, 2 acyl side, 3 side chain; linkers in the order of their positions; H or OH if unused. Non-standard residues stand in square brackets, D forms with d. Residues, ends and D or L forms follow the SMILES beside them. *: point of attachment. NOTA = O=C(O)CN1CCN(CC(=O)O)CCN(CC(=O)*)CC1; Sta = CC(C)C[C@H](N)[C@@H](O)CC(=O)O; X2 = O=C(COc1cccc(CN[*:1])c1)[*:2]; X1 = O=C(Cc1ccccc1CCN[*:1])[*:2]; X3 = O=C(COc1ccccc1CN[*:1])[*:2]
Listing: tissue uptake at 2 h of selected compounds
// return numeric value only (unit: %ID/g, not printed)

1. CC(=O)N[C@@H](CCCCNC(=O)CN1CCN(CC(=O)O)CCN(CC(=O)O)CC1)C(=O)NCCc1ccccc1CC(=O)N[C@H](Cc1ccccc1)C(=O)N[C@@H](CCC(N)=O)C(=O)N[C@@H](Cc1c[nH]c2ccccc12)C(=O)N[C@@H](C)C(=O)N[C@H](C(=O)NCC(=O)N[C@@H](Cc1c[nH]cn1)C(=O)N[C@@H](CC(C)C)[C@@H](O)CC(=O)N[C@@H](CC(C)C)C(N)=O)C(C)C [[^68Ga]Ga-NOTA-oET-RM26, metal not drawn] (Ac-K(NOTA)[X1][dF]QWAVGH[Sta]L-NH2)    11.7
2. CC(=O)N[C@@H](CCCCNC(=O)CN1CCN(CC(=O)O)CCN(CC(=O)O)CC1)C(=O)NCc1ccccc1OCC(=O)N[C@H](Cc1ccccc1)C(=O)N[C@@H](CCC(N)=O)C(=O)N[C@@H](Cc1c[nH]c2ccccc12)C(=O)N[C@@H](C)C(=O)N[C@H](C(=O)NCC(=O)N[C@@H](Cc1c[nH]cn1)C(=O)N[C@@H](CC(C)C)[C@@H](O)CC(=O)N[C@@H](CC(C)C)C(N)=O)C(C)C [[^68Ga]Ga-NOTA-oMA-RM26, metal not drawn] (Ac-K(NOTA)[X3][dF]QWAVGH[Sta]L-NH2)    21

Given the entry CC(=O)N[C@@H](CCCCNC(=O)CN1CCN(CC(=O)O)CCN(CC(=O)O)CC1)C(=O)NCc1cccc(OCC(=O)N[C@H](Cc2ccccc2)C(=O)N[C@@H](CCC(N)=O)C(=O)N[C@@H](Cc2c[nH]c3ccccc23)C(=O)N[C@@H](C)C(=O)N[C@H](C(=O)NCC(=O)N[C@@H](Cc2c[nH]cn2)C(=O)N[C@@H](CC(C)C)[C@@H](O)CC(=O)N[C@@H](CC(C)C)C(N)=O)C(C)C)c1 [[^68Ga]Ga-NOTA-mMA-RM26, metal not drawn] (Ac-K(NOTA)[X2][dF]QWAVGH[Sta]L-NH2) , report its measured tissue uptake at 2 h.
10.5

Reference source for all entries: paper PMC12332157
